Readings of viability at 24 h, 10 µM for the listed molecules
# procedure.text: in vitro
# particulars: human, HepG2 cells
# Description: Cytotoxicity against human HepG2 cells assessed as cell viability at 10 uM after 24 hrs by CellTiter-Glo luminescence assay relative to control
Please format your answer as a value with the unit trailing.

molecule: CN(C)c1ccc(C2NC(=S)Nc3nc4c(c(N)c32)CCCC4)cc1 (configuration not stated)
result.type: viability at 24 h, 10 µM
data.value: 87.3%

molecule: Nc1c2c(nc3c1C(c1ccc4c(c1)OCO4)NC(=S)N3)CCCC2 (configuration not stated)
result.type: viability at 24 h, 10 µM
data.value: 103%

molecule: COc1cccc(C2NC(=S)Nc3nc4c(c(N)c32)CCCC4)c1 (configuration not stated)
result.type: viability at 24 h, 10 µM
data.value: 100%

molecule: COc1ccccc1C1NC(=S)Nc2nc3c(c(N)c21)CCCC3 (configuration not stated)
result.type: viability at 24 h, 10 µM
data.value: 98.1%

molecule: Cc1ccc(C2NC(=S)Nc3nc4c(c(N)c32)CCCC4)cc1 (configuration not stated)
result.type: viability at 24 h, 10 µM
data.value: 90.6%

molecule: Nc1c2c(nc3c1C(c1ccc(Cl)cc1)NC(=S)N3)CCCC2 (configuration not stated)
result.type: viability at 24 h, 10 µM
data.value: 80%

molecule: COc1ccc(C2NC(=S)Nc3nc4c(c(N)c32)CCCC4)cc1 (configuration not stated)
result.type: viability at 24 h, 10 µM
data.value: 97.9%

molecule: Nc1c2c(nc3c1C(c1ccccc1)NC(=S)N3)CCCC2 (configuration not stated)
result.type: viability at 24 h, 10 µM
data.value: 105%

molecule: Nc1c2c(nc3c1C(c1cccc([N+](=O)[O-])c1)NC(=S)N3)CCCC2 (configuration not stated)
result.type: viability at 24 h, 10 µM
data.value: 102%

molecule: Cc1cccc(C2NC(=S)Nc3nc4c(c(N)c32)CCCC4)c1 (configuration not stated)
result.type: viability at 24 h, 10 µM
data.value: 97.6%

Give viability at 24 h, 10 µM for Nc1c2c(nc3c1C(c1cccc(Br)c1)NC(=S)N3)CCCC2 (configuration not stated)
103%

Give viability at 24 h, 10 µM for Nc1c2c(nc3c1C(c1ccc(F)cc1)NC(=S)N3)CCCC2 (configuration not stated)
104%

Ref: ChEMBL document CHEMBL4152325
